Molecular target: EGFR on EGFR positive non-small cell lung cancer cells NCI-H1650 (UniProt P00533 25-1210)
Experiment: cell-based or functional assay
attribute measured: H1650 CTG-3D EC50 (µg/mL)
Answers are plain numbers, in µg/mL.

Record summary for AbG-YG (antibody, human IgG1, kappa, V domains shown, synthon YG on reduced interchain cysteines; average DAR 3.7 per ADC) VH: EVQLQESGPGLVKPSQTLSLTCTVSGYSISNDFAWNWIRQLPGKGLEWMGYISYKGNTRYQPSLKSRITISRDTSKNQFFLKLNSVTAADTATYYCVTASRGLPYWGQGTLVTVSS VL: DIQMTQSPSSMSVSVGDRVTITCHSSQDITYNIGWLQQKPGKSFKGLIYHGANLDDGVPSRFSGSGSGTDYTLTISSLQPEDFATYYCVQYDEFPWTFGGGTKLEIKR : reported H1650 CTG-3D EC50 = 1.24
